Test: Caco-2 membrane permeability, improved method as used in the following Examples (96-well, 20 to 24 h preincubation)
Assay type: in vitro ADME
Conditions: human, Caco-2, Caco-2
Method: In the following Examples, membrane permeability was measured in accordance with the improved method established as described above. […] Each well was shaken at 5% CO2, 37° C., and 80 rpm, and 180 minutes after the initiation, the sample on the basal side was collected and the permeation amount was measured by LC/MS. The membrane permeability coefficient (Papp) was calculated from the permeation amount. […]
Positions of bridges follow the written chain, without caps; N, C: chain ends. Non-standard residues stand in square brackets, D forms with d. Residues, ends and D or L forms follow the SMILES beside them. *: point of attachment. NMePhe(3-Cl) = CN[C@@H](Cc1cccc(Cl)c1)C(=O)O; NMeF = CN[C@@H](Cc1ccccc1)C(=O)O; NMeI = CC[C@H](C)[C@H](NC)C(=O)O; hPhe = N[C@@H](CCc1ccccc1)C(=O)O; NMeL = CN[C@@H](CC(C)C)C(=O)O; dNMeL = CN[C@H](CC(C)C)C(=O)O; NMeV = CN[C@H](C(=O)O)C(C)C; NMeAbu = CC[C@H](NC)C(=O)O; NPentylGly = CCCCCNCC(=O)O; NMeA = CN[C@@H](C)C(=O)O; Piperidide = C1CCN(*)CC1; CH2CMe2OH = CC(C)(O)C*; Ethyl(2-OH) = OCC*; Sar = CNCC(=O)O; tBu = CC(C)(C)*
Papp A→B at 180 min overview
The reply should be a number in ×10⁻⁶ cm/s, with the unit left off.

CC(C)C[C@H]1C(=O)N[C@@H](COC(C)(C)C)C(=O)N(C)[C@@H](Cc2ccccc2)C(=O)N(C)[C@@H](CC(C)C)C(=O)N[C@H](C(=O)N2CCCCC2)CC(=O)N[C@H](C(C)C)C(=O)N(C)[C@@H](CC(C)C)C(=O)N[C@@H](CCc2ccccc2)C(=O)N(C)[C@@H](CC(C)C)C(=O)N[C@@H]([C@@H](C)O)C(=O)N(C)CC(=O)N1C [pd315] ([dV][NMeL][hPhe][NMeL]T[Sar][NMeL]S(tBu)[NMeF][NMeL]D-Piperidide; lactam N-11) = 1.7
CC(C)C[C@@H]1NC(=O)[C@H](Cc2ccccc2)N(C)C(=O)[C@@H](C(C)C)NC(=O)C[C@@H](C(=O)N2CCCCC2)NC(=O)[C@H](CC(C)C)N(C)C(=O)[C@H](Cc2cccc(Cl)c2)N(C)C(=O)[C@H](COCC(C)(C)O)NC(=O)[C@H](CC(C)C)N(C)C(=O)CN(C)C(=O)[C@H]([C@@H](C)O)NC(=O)[C@H](CC(C)C)N(C)C1=O [pd427] ([dV][NMeF]L[NMeL]T[Sar][NMeL]S(CH2CMe2OH)[NMePhe(3-Cl)][NMeL]D-Piperidide; lactam N-11) = 1.3
CC[C@H](C)[C@H]1C(=O)N[C@@H](C(C)C)C(=O)N(C)CC(=O)N(C)[C@@H](CC(C)C)C(=O)N[C@H](C(=O)N2CCCCC2)CC(=O)N(C)[C@@H](C)C(=O)N[C@@H](COCCO)C(=O)N(C)[C@H](CC(C)C)C(=O)N(C)[C@@H](Cc2ccccc2)C(=O)N[C@@H](CC(C)C)C(=O)N(C)[C@@H](Cc2ccccc2)C(=O)N1C [pd500] ([NMeA]S(Ethyl(2-OH))[dNMeL][NMeF]L[NMeF][NMeI]V[Sar][NMeL]D-Piperidide; lactam N-11) = 2.2
CCCCCN1CC(=O)N(C)[C@@H](CC(C)C)C(=O)N[C@H](C(=O)N2CCCCC2)CC(=O)N(C)[C@@H](C(C)C)C(=O)N[C@@H](CC(C)C)C(=O)N(C)[C@@H](CC)C(=O)N(C)[C@@H](Cc2ccccc2)C(=O)N[C@@H](C)C(=O)N(C)[C@@H](Cc2ccccc2)C(=O)N(C)[C@@H](CC)C(=O)N[C@@H]([C@@H](C)O)C1=O [pd403] ([NMeV]L[NMeAbu][NMeF]A[NMeF][NMeAbu]T[NPentylGly][NMeL]D-Piperidide; lactam N-11) = 9

Consider the record given below.
Exam item: Quick one: Papp A→B at 180 min for CCCCCN1CC(=O)N(C)[C@@H](Cc2ccccc2)C(=O)N(C)[C@@H](CC(C)C)C(=O)N[C@@H](COC(C)(C)C)C(=O)N(C)[C@@H](CC(C)C)C(=O)N[C@H](C(=O)N2CCCCC2)CC(=O)N(C)CC(=O)N(C)[C@@H](Cc2ccccc2)C(=O)N[C@@H](C(C)C)C(=O)N(C)[C@@H](C)C(=O)N[C@@H]([C@@H](C)O)C1=O [pd404] ([Sar][NMeF]V[NMeA]T[NPentylGly][NMeF][NMeL]S(tBu)[NMeL]D-Piperidide; lactam N-11) ?
Marked response: 1.3
